- SYSTEM_UNDER_TEST: human AT1 receptor (Homo sapiens, UniProt P30556)
- Construct: expressed in transfected cells; membrane fraction
- Sequence (P30556 whole entry): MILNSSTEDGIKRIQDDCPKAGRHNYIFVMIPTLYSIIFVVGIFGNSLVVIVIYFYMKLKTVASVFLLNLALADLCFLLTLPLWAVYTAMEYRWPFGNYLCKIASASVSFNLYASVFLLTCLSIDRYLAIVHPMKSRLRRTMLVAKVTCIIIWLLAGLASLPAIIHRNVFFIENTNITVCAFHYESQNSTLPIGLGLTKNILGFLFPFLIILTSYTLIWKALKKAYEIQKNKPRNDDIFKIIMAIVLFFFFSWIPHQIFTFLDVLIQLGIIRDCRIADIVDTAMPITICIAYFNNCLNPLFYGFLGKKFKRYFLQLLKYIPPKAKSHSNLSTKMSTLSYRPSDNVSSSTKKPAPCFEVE
- ASSAY_SUMMARY: AT1 receptor antagonistic activity: [125I]-angiotensin II binding assay on human AT1 receptor-expressing CHO-K1 cellular membrane fraction
- CONDITION_DESCRIPTION: 22.5 pM [125I]-angiotensin II, 1 hr room temperature
Kindly apply the following: class 1 if IC50 is less than 2 nM, class 0 in every other case.

See these solved cases before continuing.
CCCc1c(Cc2ccc(-c3ccccc3-c3noc(=O)[nH]3)cc2)c(=O)n([C@H]2CC[C@H](OCCO)CC2)c2ncnn12 :: class 1
C=CCOC1CCC(n2c(=O)c(Cc3ccc(-c4ccccc4-c4noc(=O)[nH]4)cc3)c(CCC)n3ncnc23)CC1 (stereo not shown) :: class 1
CCCCc1c(Cc2ccc(-c3ccccc3-c3noc(=O)[nH]3)cc2)c(=O)n([C@H]2CC[C@H](OCC(C)(C)O)CC2)c2ncnn12 :: class 0
CCCc1c(Cc2ccc(-c3ccccc3-c3noc(=O)[nH]3)cc2)c(=O)n([C@H]2CC[C@H](OCC(C)(C)O)CC2)c2nc(C)nn12 :: class 1
CCCc1c(Cc2ccc(-c3ccccc3-c3noc(=O)[nH]3)cc2)c(=O)n([C@H]2CC[C@]3(CCC(CO)O3)CC2)c2ncnn12 (stereo partly shown) :: class 0

Please check: IC50 for CCCc1c(Cc2ccc(-c3ccccc3-c3noc(=O)[nH]3)cc2)c(=O)n([C@H]2CC[C@]3(CC2)CC(C)=NO3)c2ncnn12 , strictly under 2 nM or not?
class 0

# TODO verify IC50 < 2 nM strictly for this compound: CCCc1c(Cc2ccc(-c3ccccc3-c3noc(=O)[nH]3)cc2)c(=O)n(C2CCC3(CC2)OC(=O)C(C)(C)O3)c2ncnn12 (stereo not shown)
class 0

Answer whether the compound CCCc1c(Cc2ccc(-c3ccccc3-c3noc(=O)[nH]3)cc2)c(=O)n([C@H]2CC[C@@]3(CCC(CO)O3)CC2)c2ncnn12 (stereo partly shown) has IC50 strictly less than 2 nM
class 0

Strictly below 2 nM in IC50? CCCc1c(Cc2ccc(-c3ccccc3-c3noc(=O)[nH]3)cc2)c(=O)n(CC(=O)C(C)(C)C)c2ncnn12
class 1

Is IC50 of CCCc1c(Cc2ccc(-c3ccccc3-c3noc(=O)[nH]3)cc2F)c(=O)n([C@H]2CC[C@H](OC(CC)C(C)(C)O)CC2)c2ncnn12 (stereo partly shown) strictly below 2 nM?
class 1

Given the entry CCCc1c(Cc2ccc(-c3ccccc3-c3noc(=O)[nH]3)cc2)c(=O)n([C@H]2CC[C@H](OCCCO)CC2)c2ncnn12 , would its reported IC50 be below 2 nM?
class 0

IC50 strictly < 2 nM for this compound? CCCc1c(Cc2ccc(-c3ccccc3-c3noc(=O)[nH]3)cc2)c(=O)n(C2CCC3(CC2)OCC(C)(C)CO3)c2ncnn12
class 1
